This collection of values is drawn from patent EP4775571A1.

# SYSTEM NAME: LPAR1 (Homo sapiens, UniProt Q92633)
# Construct: expressed in transfected cells; host or cells: CHO (CHO-LPA1 cells)
# Sequence (Q92633 whole entry): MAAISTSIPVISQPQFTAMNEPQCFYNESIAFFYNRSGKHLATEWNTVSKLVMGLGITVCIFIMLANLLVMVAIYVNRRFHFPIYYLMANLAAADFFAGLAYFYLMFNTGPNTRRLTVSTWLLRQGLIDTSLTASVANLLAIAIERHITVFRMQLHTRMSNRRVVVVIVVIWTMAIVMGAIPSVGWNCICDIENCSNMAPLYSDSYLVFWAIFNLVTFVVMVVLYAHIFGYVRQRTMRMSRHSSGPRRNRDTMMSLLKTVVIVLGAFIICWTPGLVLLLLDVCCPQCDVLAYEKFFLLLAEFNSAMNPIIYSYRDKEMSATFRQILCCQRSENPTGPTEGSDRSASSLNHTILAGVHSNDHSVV
# MEASUREMENT DESCRIPTION: Cell calcium flux assay (antagonist mode, LPA at EC80, FLIPR)
# Type: cell-based
# TEST SETTINGS: CHO-LPA1 cells, calcium flux, grades; read-out: LPAR1 IC50
What IC50 was measured for each of the following?

Query :: Give the measured IC50 of C=C1CC(CN(C)C(=O)OCc2c(-c3ccc(NC(=O)C4C(C(=O)O)C4(F)F)c(C)n3)nnn2C)C1 (single isomer, unassigned) .
Result :: < 10 nM

Query :: Give its IC50 value. Item: "Cc1nc(-c2nnn(C)c2COC(=O)N(C)[C@H]2C[C@@H](OC(F)(F)F)C2)ccc1O[C@H]1CCC[C@H](C(=O)O)C1"
Result :: < 10 nM

Query :: # lookup: IC50 of "Cc1nc(-c2nnn(C)c2COC(=O)N(C)CCSC(F)(F)F)ccc1O[C@H]1CCC[C@H](C(=O)O)C1"
Result :: < 10 nM

Query :: Which IC50 value is on record for "C=C1CC(OC(=O)NCc2c(-c3ccc(O[C@H]4CCC[C@H](C(=O)O)C4)c(C)n3)nnn2C)C1" ?
Result :: < 10 nM

Query :: Any idea what its IC50 is? The compound is "Cc1nc(-c2nnn(C)c2COC(=O)N(C)[C@H]2C[C@@H](OC(F)F)C2)ccc1O[C@H]1CCC[C@H](C(=O)O)C1"
Result :: < 10 nM

Query :: Any idea what its IC50 is? The compound is Cc1nc(-c2nnn(C)c2COC(=O)N(C)CC2CC(=C(F)F)C2)ccc1O[C@H]1CCC[C@H](C(=O)O)C1 (stereo partly drawn)
Result :: 10 to 50 nM

----------
# SYSTEM NAME: LPAR1 (Homo sapiens, UniProt Q92633)
# Construct: expressed in transfected cells; host or cells: CHO (CHO-LPA1 cells)
# MEASUREMENT DESCRIPTION: Cell calcium flux assay (antagonist mode, LPA at EC80, FLIPR)
# Format: cell-based
# TEST SETTINGS: antagonistic activity against the LPAR1 receptor; read-out: IC50 values
# Description: […]
MEASUREMENT TYPE: IC50 (nM)
Give just the numeric value; nM need not be written.

Query :: Can you look up IC50 on LPAR1 (Homo sapiens, UniProt Q92633) for "C=C1CCC(CN(C)C(=O)OCc2c(-c3ccc(O[C@H]4CCC[C@H](C(=O)O)C4)c(C)n3)nnn2C)CC1" ?
Result :: 2

Query :: Report IC50 for "C=C1CC(N(C)C(=O)OCc2c(-c3ccc(O[C@H]4CCC[C@H](C(=O)O)C4)c(C)n3)nnn2C)C1" tested on LPAR1 (Homo sapiens, UniProt Q92633).
Result :: 2

Query :: Given the entry "C=C1CC(CN(C)C(=O)OCc2c(-c3ccc(O[C@H]4CCC[C@H](C(=O)O)C4)c(C)n3)nnn2C)C1" , what IC50 was observed with LPAR1 (Homo sapiens, UniProt Q92633)?
Result :: 2

Query :: Under LPAR1 (Homo sapiens, UniProt Q92633): IC50 value of Cc1nc(-c2nnn(C)c2COC(=O)N(C)C2CC(=C(F)F)C2)ccc1O[C@H]1CCC[C@H](C(=O)O)C1 (some centres unmarked) ?
Result :: 2

Query :: Test system LPAR1 (Homo sapiens, UniProt Q92633); read-out IC50; what value for CC=C1CC(N(C)C(=O)OCc2c(-c3ccc(O[C@H]4CCC[C@H](C(=O)O)C4)c(C)n3)nnn2C)C1 (some centres unmarked) ?
Result :: 2

----------
Exercise: state measured bioavailability for each of the molecules provided.
# MEASUREMENT DESCRIPTION: Pharmacokinetic test in mice
# Type: in vivo, C57 mice
# TEST SETTINGS: mouse, plasma, po; mice, i.g. (3 mg/kg)
# Procedure: 2.1 Experimental animals: Male C57 mice, 20-25 g, 6 mice/compound, purchased from Chengdu Ddossy Experimental Animals Co., Ltd. 2.2 Experimental design: On the day of the experiment, the C57 mice were randomly grouped according to their body weights. The animals were fasted with water available for 12-14 h one day before the administration, and were fed 4 h after the administration. Table 2. Administration information […]

Query :: Looking for the measured bioavailability of Cc1nc(-c2nnn(C)c2CNC(=O)OC2CC(=C(F)F)C2)ccc1O[C@H]1CCC[C@H](C(=O)O)C1 (stereo partly drawn) , can you help?
Result :: ≥ 98%

Query :: Need bioavailability of Cc1nc(-c2nnn(C)c2CNC(=O)OC2CC(=C(F)F)C2)ccc1OCCC1(C(=O)O)CC1 (stereo not drawn) , thanks.
Result :: 91.3%

Query :: # get_value(readout='bioavailability', item= "C=C1CC(N(C)C(=O)OCc2c(-c3ccc(O[C@H]4CCC[C@H](C(=O)O)C4)c(C)n3)nnn2C)C1" )
Result :: ≥ 98%

----------
# MEASUREMENT DESCRIPTION: Pharmacokinetic test in rats
# Assay type: in vivo, SD rats
# TEST SETTINGS: rat, plasma, po; rats, i.g. (3 mg/kg)
MEASUREMENT TYPE: bioavailability

Query :: # bioavailability lookup, item Cc1nc(-c2nnn(C)c2CNC(=O)OC2CC(=C(F)F)C2)ccc1O[C@H]1CCC[C@H](C(=O)O)C1 (some centres unmarked)
Result :: ≥ 98%

Query :: I am curious: what bioavailability value has been reported for Cc1nc(-c2nnn(C)c2CNC(=O)OC2CC(=C(F)F)C2)ccc1OCCC1(C(=O)O)CC1 (centres unmarked) ?
Result :: ≥ 98%

----------
# MEASUREMENT DESCRIPTION: Pharmacokinetic test in mice
# Assay type: in vivo, C57 mice
# TEST SETTINGS: mice, i.v. (1 mg/kg), plasma
Answer each item with its documented C0 or Cmax.
Your answer should be a number followed by the unit of measure.

Query :: // returns reported C0 or Cmax for input Cc1nc(-c2nnn(C)c2CNC(=O)OC2CC(=C(F)F)C2)ccc1OCCC1(C(=O)O)CC1 (centres unmarked)
Result :: 1361 ± 179 ng/mL

Query :: What measured C0 or Cmax goes with "C=C1CC(N(C)C(=O)OCc2c(-c3ccc(O[C@H]4CCC[C@H](C(=O)O)C4)c(C)n3)nnn2C)C1" ?
Result :: 1066 ± 134 ng/mL

Query :: Record request: C0 or Cmax value, item "C=C1CC(OC(=O)NCc2c(-c3ccc(O[C@H]4CCC[C@H](C(=O)O)C4)c(C)n3)nnn2C)C1"
Result :: 2268 ± 193 ng/mL

Query :: What value of measured C0 or Cmax is listed for Cc1nc(-c2nnn(C)c2CNC(=O)OC2CC(=C(F)F)C2)ccc1O[C@H]1CCC[C@H](C(=O)O)C1 (some centres unmarked) ?
Result :: 1537 ± 290 ng/mL

Query :: What value of measured C0 or Cmax is listed for Cc1nc(-c2nnn(C)c2COC(=O)N(C)C2CC(=C(F)F)C2)ccc1O[C@H]1CCC[C@H](C(=O)O)C1 (some centres unmarked) ?
Result :: 1938 ± 258 ng/mL

----------
# MEASUREMENT DESCRIPTION: Pharmacokinetic test in rats
# Assay type: in vivo, SD rats
# TEST SETTINGS: rat, iv; rats, i.v. (1 mg/kg), plasma; read-out: Vdss
Could you please report measured Vd for the items listed next?
A number alone suffices; assume L/kg.

Query :: Which Vd is listed for C=C1CC(OC(=O)NCc2c(-c3ccc(O[C@H]4CCC[C@H](C(=O)O)C4)c(C)n3)nnn2C)C1 [Compound 26] ?
Result :: 1.21

Query :: What value of Vd has been recorded for this entry: C=C1CC(N(C)C(=O)OCc2c(-c3ccc(OCC(C)(C)CC(=O)O)c(C)n3)nnn2C)C1 [Compound 29]
Result :: 3.53

Query :: Find the recorded Vd belonging to Cc1nc(-c2nnn(C)c2CNC(=O)OC2CC(=C(F)F)C2)ccc1OCCC1(C(=O)O)CC1 (stereo not shown) [Compound 47] and report it.
Result :: 0.825

Query :: Data request, read-out Vd, for Cc1nc(-c2nnn(C)c2CNC(=O)OC2CC(=C(F)F)C2)ccc1O[C@H]1CCC[C@H](C(=O)O)C1 (stereo partly shown) [Compound 22]
Result :: 1.21

----------
# MEASUREMENT DESCRIPTION: Caco2 permeability test
# Type: in vitro ADME
# TEST SETTINGS: human, Caco-2 monolayer, 2 hours at 37°C, pH 7.4, read-out: Average apparent permeability coefficient B-A
MEASUREMENT TYPE: Papp B→A at 2 h, 2 µM (nm/s)
Just the number please, in nm/s, no unit attached.

Query :: So what does the record say about Papp B→A at 2 h, 2 µM for "C=C1CC(OC(=O)NCc2c(-c3ccc(O[C@H]4CCC[C@H](C(=O)O)C4)c(C)n3)nnn2C)C1" ?
Result :: 292
